meta.source: ChEMBL document CHEMBL1122305

Measured ILS, listed per entry.
- System: L1210
- ASSAY_EXPLANATION: Percent increase in life span relative to untreated controls in murine L1210 leukemia infected B6D2F1J male mice at […] optimal dose
- Assay type: functional, Mus musculus

- COMPOUND: "CCCCSCC(=O)[C@]1(O)Cc2c(O)c3c(c(O)c2[C@@H](OC2CC(NC(=O)C(F)(F)F)C(O)C(C)O2)C1)C(=O)c1c(OC)cccc1C3=O (some centres undefined)"
  ILS (%): 0
- COMPOUND: "CCCCCCCCCCCCSCC(=O)[C@]1(O)Cc2c(O)c3c(c(O)c2[C@@H](OC2CC(NC(=O)C(F)(F)F)C(O)C(C)O2)C1)C(=O)c1c(OC)cccc1C3=O (some centres undefined)"
  ILS (%): 0
- COMPOUND: "CCOC(=O)CSCC(=O)[C@]1(O)Cc2c(O)c3c(c(O)c2[C@@H](OC2CC(NC(=O)C(F)(F)F)C(O)C(C)O2)C1)C(=O)c1c(OC)cccc1C3=O (some centres undefined)"
  ILS (%): 0
- COMPOUND: "CCCCCSCC(=O)[C@]1(O)Cc2c(O)c3c(c(O)c2[C@@H](OC2CC(NC(=O)C(F)(F)F)C(O)C(C)O2)C1)C(=O)c1c(OC)cccc1C3=O (some centres undefined)"
  ILS (%): 10
